Would you mind telling me the reported pIC50 of each entry?
Target: IDH (endogenous IDH1 R132C) in HT1080 cell (Homo sapiens, UniProt O75874, R132C)
Construct: which harbor endogenous heterozygous IDH1 R132C and R132H mutation respectively and accumulate D-2-HG
Sequence (O75874 2-414 R132C): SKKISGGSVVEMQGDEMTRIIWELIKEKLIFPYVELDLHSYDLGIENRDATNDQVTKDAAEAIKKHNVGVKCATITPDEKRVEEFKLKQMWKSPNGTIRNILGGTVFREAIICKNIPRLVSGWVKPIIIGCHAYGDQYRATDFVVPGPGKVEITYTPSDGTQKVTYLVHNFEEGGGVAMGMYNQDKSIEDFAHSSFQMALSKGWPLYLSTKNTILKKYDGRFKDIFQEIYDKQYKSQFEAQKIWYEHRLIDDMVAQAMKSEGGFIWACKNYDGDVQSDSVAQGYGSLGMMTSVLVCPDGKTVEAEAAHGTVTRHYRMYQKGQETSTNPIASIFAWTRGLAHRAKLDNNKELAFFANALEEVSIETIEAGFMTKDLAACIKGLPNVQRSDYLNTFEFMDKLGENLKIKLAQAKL
Experiment: Cell-based assay for IDH inhibition (decrease of D-2-HG) in HT1080 cells
Settings: human fibrosarcoma cell line HT1080, 16 hours treatment, D-2-HG by LC-MS, in triplet
pIC50: −log10 of the molar value.

Ask | Provide pIC50 value for the following compound: `CCN1Cc2c(ccnc2N[C@@H](C)c2cc(F)c(-c3cc(C(C)(C)F)cc(O)n3)cc2F)C1=O`
Reply | 6.30 to 7.00

Ask | Specify pIC50 for `CCN1Cc2c(ccnc2N[C@@H](C)c2cc(F)c(-c3ccnc(C(C)(C)C)c3)c(F)c2)C1=O` and stop.
Reply | 6.30 to 7.00

Ask | Return pIC50 (reported value) for this compound: `CCN1Cc2c(ccnc2N[C@@H](C)c2cc(F)c(-c3ccnc(-c4ccn(C)c4)c3)cc2F)C1=O`
Reply | 6.30 to 7.00

Ask | # return recorded pIC50 for entry `CCN1Cc2c(ccnc2N[C@@H](C)c2cc(F)c(Oc3ccc4c(ccn4C)c3)cc2F)C1=O`
Reply | < 6.00

Ask | Using known records, supply pIC50 for `CCN1Cc2c(ccnc2N[C@@H](C)c2ccc(Oc3ccc4c(ccn4CCO)c3)c(F)c2)C1=O`
Reply | < 6.00

Ask | Recall and state the measured pIC50 for `CCN1Cc2c(ccnc2N[C@@H](C)c2cc(F)c(Oc3ccc(C)cc3)cc2F)C1=O` .
Reply | 6.00 to 6.30

Ask | Quickly give me recorded pIC50 for `CCN1Cc2c(ccnc2N[C@@H](C)c2cc(F)c(-c3ccnc(-c4cccnc4)c3)cc2F)C1=O`
Reply | 6.00 to 6.30

* * *

Target: IDH1 R132H (Homo sapiens, UniProt O75874, R132H)
Construct: 6xHis
Sequence (O75874 whole entry R132H): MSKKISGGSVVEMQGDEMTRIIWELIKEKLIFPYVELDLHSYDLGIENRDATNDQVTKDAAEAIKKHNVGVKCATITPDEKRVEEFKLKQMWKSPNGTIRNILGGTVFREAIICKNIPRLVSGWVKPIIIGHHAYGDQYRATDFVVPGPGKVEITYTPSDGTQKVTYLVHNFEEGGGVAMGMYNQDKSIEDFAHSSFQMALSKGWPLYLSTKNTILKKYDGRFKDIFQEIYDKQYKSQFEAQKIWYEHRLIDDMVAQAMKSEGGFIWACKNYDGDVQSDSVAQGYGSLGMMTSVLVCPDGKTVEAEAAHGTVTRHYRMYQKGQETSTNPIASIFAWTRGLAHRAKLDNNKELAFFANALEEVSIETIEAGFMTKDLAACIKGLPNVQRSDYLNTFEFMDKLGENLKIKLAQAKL
Assay: Biochemical assay for IDH inhibition (NADPH fluorescence), mutant IDH1 R132H
Details: 50 nM IDH1-R132H, 1 hour pre-incubation, in triplet
Text: The present disclosure provides a biochemical assay method for detecting the IDH inhibition and selectivity of the compounds by detecting IDH enzyme activity directly. Wild-type IDH enzymes convert NADP^+ to NADPH when catalyzing the α-KG producing reaction. […] So, the activity of wild-type and mutant IDH1/2 could be measured by monitoring NADPH level change as NADPH is fluorescent (Excitation 340 nm, Emission 460 nm). […]
Exercise: for every item that follows, state its recorded IC50.

Ask | Tell us which IC50 value is on record for `CCN1Cc2c(ccnc2N[C@@H](C)c2cc(F)c(-c3cc(C(C)(C)F)c(O)cn3)cc2F)C1=O`
Reply | 100 to 500 nM

Ask | Please report IC50 for the following compound: `CCN1Cc2c(ccnc2N[C@@H](C)c2ccc(-c3ccnc(C4CCC4)c3)c(F)c2)C1=O`
Reply | 100 to 500 nM

Ask | Specify measured IC50 for `CCN1Cc2c(ccnc2N[C@@H](C)c2ccc(N(C)c3ccccc3)c(F)c2)C1=O` .
Reply | > 1000 nM

Ask | Return the recorded IC50 value; entry: `CCN1Cc2c(ccnc2N[C@@H](C)c2cc(F)c(-c3nc(C(C)(C)C)ccc3OC)cc2F)C1=O`
Reply | < 100 nM

Ask | Please supply the value of reported IC50 for the item `CCN1Cc2c(ccnc2N[C@@H](C)c2ccc(-c3ccc(C)cc3)c(F)c2)C1=O`
Reply | 100 to 500 nM

Ask | Indicate its recorded IC50; the compound in question is `CCN1Cc2c(ccnc2N[C@@H](C)c2cc(F)c(-c3ccnc(C(C)(C)C)c3)c(F)c2)C1=O`
Reply | < 100 nM

Ask | Consider the compound `CCN1Cc2c(ccnc2N[C@@H](C)c2cc(F)c(-c3cc(C(C)(C)C)ncc3F)cc2F)C1=O` . State its measured IC50.
Reply | < 100 nM

Ask | Read the entry `CCN1Cc2c(ccnc2N[C@@H](C)c2cc(F)c(-c3cc(C(F)(F)F)cc(OC)n3)cc2F)C1=O` and write its reported IC50.
Reply | < 100 nM

Ask | # return recorded IC50 for input `CCN1Cc2c(ccnc2N[C@@H](C)c2ccc(Cc3ccc(F)c(C)c3)c(F)c2)C1=O`
Reply | 100 to 500 nM

Ask | Name the recorded IC50 of the compound listed here: `CCN1Cc2c(ccnc2N[C@@H](C)c2ccc(Oc3ccc4c(ccn4C(C)C)c3)c(F)c2)C1=O`
Reply | 100 to 500 nM

Ask | Return IC50 (reported value) for this compound: `CCN1Cc2c(ccnc2N[C@@H](C)c2ccc(C3=CCN(C(C)(C)C)CC3)c(F)c2)C1=O`
Reply | > 1000 nM

Ask | Give recorded IC50. `CCN1Cc2c(ccnc2N[C@@H](C)c2cc(F)c(-c3nc(C)cc(C(C)(C)F)c3F)cc2F)C1=O`
Reply | < 100 nM

Ask | Quickly give me recorded IC50 for `CCN1Cc2c(ccnc2N[C@@H](C)c2cc(F)c(-c3ccnc(C(C)(C)F)c3)cc2F)C1=O`
Reply | < 100 nM

Ask | Give the value of IC50 reported for the following: `CCN1Cc2c(N[C@@H](C)c3ccc(Oc4ccc(C)cc4)c(F)c3)ncnc2C1=O`
Reply | > 1000 nM

Ask | Indicate its recorded IC50; the compound in question is `CCN1Cc2c(ccnc2N[C@@H](C)c2cc(F)c(-c3ccnc(Cl)c3)cc2F)C1=O`
Reply | > 1000 nM

Ask | Tell us which IC50 value is on record for `CCN1Cc2c(ccnc2N[C@@H](C)c2ccc(Oc3ccnc(C(C)(C)C)c3)c(F)c2)C1=O`
Reply | 100 to 500 nM
